The measurements presented in this section are drawn from ChEMBL document CHEMBL1142410.

- System: Sonchus arvensis
- Method notes: Phytotoxicity against Sonchus arvensis at 1 mg/ml by leaf disk puncture assay; call rule not given here
- Assay type: functional
Pick from active, inactive when you respond.

C[C@@H]1C[C@H](O)/C=C/[C@@H](O)CCC(=O)O1: inactive
C[C@@H]1CC[C@@H](O)/C=C/C=C\C(=O)O1: inactive

Query: How did this test come out for "C[C@@H]1OC(=O)CC[C@H](O)/C=C/[C@@H]2O[C@H]12" ?
Response: inactive

Query: How did this test come out for "CCC[C@H]1OC(=O)CC[C@@H](O)/C=C/[C@H](O)[C@@H]1O" ?
Response: inactive

Query: How did this test come out for "CCC[C@H]1OC(=O)CCC/C=C/C(=O)[C@@H]1O" ?
Response: active

Query: How did this test come out for "C[C@@H]1C/C=C/[C@@H](O)CCCC(=O)O1" ?
Response: inactive
